system: Ga16 counterscreen cells, calcium fluorescence antagonism; assay: nonselective Ga16 antagonists, potency, SAR follow-up, counter-screen for TAAR1 agonist project, cell-based, fluorescence, dose response, MedChem round 1 (AID 743494)
Active and inactive are the calls of the source. The rule behind the calls is not given here.
outcome_measure: IC50

> print(dat)
                                   compound  outcome.measure                result
1  NC(=O)CCN1C[C@H](c2ccccc2)[C@@H]2[C@H]1C1CCN2CC1             IC50  > 29.9 µM (inactive)
2  O=C(CCN1C[C@@H](C(=O)O)[C@H](c2ccccc2)C1)NCc1cccs1             IC50  > 29.9 µM (inactive)
3  CC(CN1CCCC1Cc1ccccc1)C(=O)c1ccc2c(c1)OCCO2 (stereo unspecified)             IC50  > 29.9 µM (inactive)
4  O=C(CCN1CCC(O)(c2ccc(F)cc2)C1)c1ccc2c(c1)OCCO2 (stereo unspecified)             IC50  > 29.9 µM (inactive)

[in] What does the record list as IC50 for CC(CN1CCC(c2ccccc2)C1)C(=O)c1ccc2c(c1)OCCO2 (stereo unspecified) ?
[out] > 29.9 µM (inactive)

[in] Which value of IC50 has been reported for Cc1ccc(C(=O)CCN2CCC(c3ccccc3)C2)cc1 (stereo unspecified) in the records?
[out] > 29.9 µM (inactive)

[in] // IC50 lookup, key: O=C(CCN1CCC(O)(c2ccccc2)C1)c1ccc2c(c1)OCCO2 (stereo unspecified)
[out] > 29.9 µM (inactive)

[in] What does the record list as IC50 for O=C(CCN1CCC(c2ccccc2)C1)c1ccccc1 (stereo unspecified) ?
[out] > 29.9 µM (inactive)

[in] Request the reported IC50 associated with O=C(CCN1C[C@@H](C(=O)O)[C@H](c2cccc(F)c2)C1)NC1CC1
[out] > 29.9 µM (inactive)

[in] For the compound shown here, O=C(CCN1C[C@@H](C(=O)O)[C@H](c2ccccc2)C1)NC1CCCC1 , give the reported IC50.
[out] > 29.9 µM (inactive)

[in] Quick check: IC50 of CC1CN(CCC(=O)c2ccc3c(c2)OCCO3)CC1c1ccccc1 (stereo unspecified) ?
[out] > 29.9 µM (inactive)
